// data source = patent US20160053277A1

experiment: Shuffled variant libraries: 14CO2 capturing assay in 384-well format; conditions: decarboxylation activity (carbon dioxide released) compared with unmutated backbone protein SEQ ID NO 133 (DDEC0201)
Recorded Fold Activity for the following molecules

Molecule: 144 (protein, Dicamba decarboxylase variant) MAQGKVALEEHFAIPETLQDSAGFVPGDYWKELQHRLLDIQDTRLRLMDAHGIETMILSLAAPAVQAIPDRRKAIEIARRANDFLAEECAKRPDRFLAFAALPLQDPDAASEELQRCVNDLGFVGALVNGFSQEGDGQTPLYYDLPQYRPFWGEVEKLDVPFYLHPRNPLPQDSRIYDGHPWLLGPTWAFAQETAVHALRLMASGLFDEHPRLNIILGHMGEGLPYMMYRIDHRIAWVHEPPRYPAKRRFMDYFNENFHITTSGNFRTQTLIDAILEIGADRILFSTDWPFENIDHAADWFNATSIAEADRLKIGRTNARRLFKLDGD
Measurement Kind: Fold Activity
Recorded Value: 1.2

Molecule: 140 (protein, Dicamba decarboxylase variant) MAQGKVALEEHFAIPETLQDSAGFVPGDYWKELQHRLLDIQDTRLKLMDAHGIETMILSLAAPAVQAIPDRRKAIEIARRANDFLAEECAKRPDRFLAFAALPLQDPDAATEELQRCVNDLGFVGALVNGFSQEGDGQTPLYYDLPQYRPFWGEVEKLDVPFYLHPRNPLPQDSRIYDGHPWLLGPTWAFAQETAVHALRLMASGLFDEHPRLNIILGHLGEGLPYMMYRIDHRIAWVHEPPRYPAKRRFMDYFNENFHITTSGNFRTQTLIDAILEIGADRILFSTDWPFENIDHAADWFNATSIAEADRVKIGRTNARRLFKLDGA
Measurement Kind: Fold Activity
Recorded Value: 1.1

Molecule: 254 (protein, Dicamba decarboxylase variant) MAQGKVALEEHFAIPETLQDSAGFVPGDYWKELQHRLLDIQDTRLKLMDAHGIETMILSLAAPAVQAIPDRRQAIEIARRANDFLAEECAKRPDRFLAFAALPLQDPDAASEELQRCVNDLGFVGALVNGFSVEGDGQTPLYYDLPQYRPFWGEVEKLDVPFYLHPRNPLPQDSRIYDGHPWLLGPTWAFAQETAVHALRLMASGLFDEHPRLNIILGHLGEGLPYMMYRIDHRIAWVHPPPRYPAKRRFMDYFNENFHITTSGNFRTQTLIDAILEIGADRILFSTDWPFENIDHAADWFNATSIAEADRVKIGRTNARRLFKLDGA
Measurement Kind: Fold Activity
Recorded Value: 1.2

Moving on to another molecule below.
# input molecule: 135 (protein, Dicamba decarboxylase variant) MAQGKVALEEHFAIPETLQDSAGFVPGDYWKELQHRLLDIQDTRLRLMDAHGIETMILSLAAPAVQAIPDRRKAIEIARRANDFLAEECAKRPDRFLAFAALPLQDPDAATEELQRCVNDLGFVGALVNGFSVEGDGQTPLYYDLPQYRPFWGEVEKLDVPFYLHPRNPLPQDSRIYDGHPWLLGPTWAFAQETAVHALRLMASGLFDEHPRLNIILGHLGEGLPYMMYRIDHRIAWVKLPPRYPAKRRFMDYFLENFHITTSGNFRTQTLIDAILEIGADRILFSTDWPFENIDHAADWFNATSIAEADRVKIGRTNARRLFKLDGD ; wanted: its Fold Activity 1.3
